# measurement-target: T1, human programmed cell death protein 1 (hPD-1) C93S (aa 24-167) (Homo sapiens, UniProt Q15116, C93S)
# T1 construct: made as a fusion with a TEV site and human Fc; the Fc was cut off with TEV protease; source: Expi293F, purified (Protein A, TEV cleavage of Fc, SEC; monomer fractions); not shown: Fc (human), C-terminal, cleaved
# T1 sequence (Q15116 24-167 C93S): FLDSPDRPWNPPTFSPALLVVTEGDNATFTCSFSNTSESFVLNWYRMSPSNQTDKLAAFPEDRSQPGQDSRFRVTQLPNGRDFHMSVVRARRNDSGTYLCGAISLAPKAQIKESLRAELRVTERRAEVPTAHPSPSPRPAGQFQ
# assay-explanation: SPR; Carterra LSA; Fab from the ammonium sulfate precipitate of the culture supernatant immobilised on a NiHC200M chip; hPD-1 (1-1024 nM) or mPD-1-Fc (4-1024 nM) as analyte, fourfold dilution series, no regeneration; HBS-EP pH 7.4, 25 °C; medians over the spots of a construct, KD = koff/kon
# details: one partner purified
Exercise: state measured kon for each of the binders provided.
Kindly answer with a numeric value in M⁻¹ s⁻¹, unit omitted.

Would you mind telling me what kon value was observed for toripalimab Fab L.I29A (Fab, V domains shown, as the heavy chain of Sm3; light chain of Sm3 with this change; numbers count from the chain's first residue; source: Brevibacillus, culture supernatant (ammonium sulfate precipitate); not shown: 6xHis, C-terminal, kept; 6xHN, C-terminal, kept) VH: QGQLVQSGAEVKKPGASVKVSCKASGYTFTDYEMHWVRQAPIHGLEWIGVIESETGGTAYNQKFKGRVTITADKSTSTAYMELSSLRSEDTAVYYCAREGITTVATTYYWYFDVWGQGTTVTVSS VL: DVVMTQSPLSLPVTLGQPASISCRSSQSAVHSNGNTYLEWYLQKPGQSPQLLIYKVSNRFSGVPDRFSGSGSGTDFTLKISRVEAEDVGVYYCFQGSHVPLTFGQGTKLEIK ? 21500

Would you mind telling me what kon value was observed for toripalimab Fab L.P100V (Fab, V domains shown, as the heavy chain of Sm3; light chain of Sm3 with this change; numbers count from the chain's first residue; source: Brevibacillus, culture supernatant (ammonium sulfate precipitate); not shown: 6xHis, C-terminal, kept; 6xHN, C-terminal, kept) VH: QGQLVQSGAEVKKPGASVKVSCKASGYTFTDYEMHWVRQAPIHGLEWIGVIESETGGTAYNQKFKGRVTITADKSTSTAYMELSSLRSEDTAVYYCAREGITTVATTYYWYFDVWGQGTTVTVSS VL: DVVMTQSPLSLPVTLGQPASISCRSSQSIVHSNGNTYLEWYLQKPGQSPQLLIYKVSNRFSGVPDRFSGSGSGTDFTLKISRVEAEDVGVYYCFQGSHVVLTFGQGTKLEIK ? 8040

Would you mind telling me what kon value was observed for toripalimab Fab H.W110A (Fab, V domains shown, heavy chain of Sm3 with this change; numbers count from the chain's first residue; as the light chain of Sm3; source: Brevibacillus, culture supernatant (ammonium sulfate precipitate); not shown: 6xHis, C-terminal, kept; 6xHN, C-terminal, kept) VH: QGQLVQSGAEVKKPGASVKVSCKASGYTFTDYEMHWVRQAPIHGLEWIGVIESETGGTAYNQKFKGRVTITADKSTSTAYMELSSLRSEDTAVYYCAREGITTVATTYYAYFDVWGQGTTVTVSS VL: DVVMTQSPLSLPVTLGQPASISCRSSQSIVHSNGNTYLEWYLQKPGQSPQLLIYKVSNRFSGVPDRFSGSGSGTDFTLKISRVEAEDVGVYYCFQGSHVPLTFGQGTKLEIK ? 4120
